- Tested on: Bacillus subtilis DB104 (SP-AmyQ fusion secretion)
- assay.method.text: AmyQ secretion efficiency, weighted average sort bin (1 = best secretion, 10 = worst) (bin number (weighted average, 1-10)); higher = lower secretion efficiency
test.readout: AmyQ secretion efficiency
Would you mind answering with just the numeric figure?

// solved cases for AmyQ secretion efficiency follow
{"sequence.code": "MRSKKLWISLLFALTLITFTMAFSNMSAQAAGK", "AmyQ secretion efficiency": 3.27}
{"sequence.code": "MIAYFGKCLLLVTIMFLGVLFGMWQANHG", "AmyQ secretion efficiency": 7.19}
{"sequence.code": "MNKPTKLFSTLALAAGMTDEEEEEAGTIHAQQP", "AmyQ secretion efficiency": 7.16}
{"sequence.code": "MIAYFGKCLLLVTIMFLGVLFGMHQANHG", "AmyQ secretion efficiency": 6.41}

Return value of AmyQ secretion efficiency for input "MKWMCSICCAAVLLAGGADQAEAV" , no commentary.
2.46

Supply measured AmyQ secretion efficiency of "MLTKRLLTIYIMLLGLIAWFPGAAQAEDE" in your reply.
3.66

Give recorded AmyQ secretion efficiency. "MSTKQVMLALTAAAGLGLTALHSAPAAKAAPL"
2.43

Assign AmyQ secretion efficiency to the following record: "MKKRLIGFLVLVPALIMSGITLQEANKK"
7.31

----------
- Tested on: Bacillus subtilis DB104 (SP-AmyQ fusion secretion)
- assay.method.text: AmyQ secretion efficiency, weighted average sort bin (1 = best secretion, 10 = worst) (bin number (weighted average, 1-10)); higher = lower secretion efficiency
test.readout: AmyQ secretion efficiency
Please give the numeric answer without any surrounding text.

{"sequence.code": "MLKKIALTLCPAIVGSLLFFTAPASTHVS", "target.desc": "Bacillus subtilis DB104 (SP-AmyQ fusion secretion)", "result.value": 5.85}
{"sequence.code": "MHLIRAAGAVCLAVVLIAGCRFNEDQHQAEMENT", "target.desc": "Bacillus subtilis DB104 (SP-AmyQ fusion secretion)", "result.value": 6.08}
{"sequence.code": "MKNMSCKLVVSVTLFFSFLTIGPLNHAQNS", "target.desc": "Bacillus subtilis DB104 (SP-AmyQ fusion secretion)", "result.value": 5.54}
{"sequence.code": "MKWMCSICCAAVLLAGAAAAQAEAV", "target.desc": "Bacillus subtilis DB104 (SP-AmyQ fusion secretion)", "result.value": 4.13}
{"sequence.code": "MKKTIMSFVAVAALSTTAFGAHASAADD", "target.desc": "Bacillus subtilis DB104 (SP-AmyQ fusion secretion)", "result.value": 2.13}
{"sequence.code": "MNVLLSALLLLLFAFEPSASGKKL", "target.desc": "Bacillus subtilis DB104 (SP-AmyQ fusion secretion)", "result.value": 7.25}
{"sequence.code": "MKRVCLTALLSVLLVAGSVPFHAEAKKP", "target.desc": "Bacillus subtilis DB104 (SP-AmyQ fusion secretion)", "result.value": 2.1}
{"sequence.code": "MAIIIAIIAAVIVIAALITFNVRNQSPG", "target.desc": "Bacillus subtilis DB104 (SP-AmyQ fusion secretion)", "result.value": 9.31}

Give me measured AmyQ secretion efficiency, please, for this sequence: "MKRLLLGILCSAAVFLIGAPSRALGAEV"
2.5

Supply reported AmyQ secretion efficiency belonging to this sequence: "MKKMLMLAFTFLLALTIHVGEASAVRK"
2.01

----------
Measured AmyQ secretion efficiency of individual entries
- Test system: Bacillus subtilis DB104 (SP-AmyQ fusion secretion)
- assay.method.text: AmyQ secretion efficiency, weighted average sort bin (1 = best secretion, 10 = worst) (bin number (weighted average, 1-10)); higher = lower secretion efficiency
Keep it simple and answer with nothing but the number.

{"sequence.code": "MLCVMMLLFSAIASFPVSAQQKDQ", "AmyQ secretion efficiency": 6.18}
{"sequence.code": "MKRMIVRMKRPSLIVCLAFSSFSASARAASE", "AmyQ secretion efficiency": 6.12}
{"sequence.code": "MKKTGQQLLSLGLVFGFSYGAGHVAEAKTK", "AmyQ secretion efficiency": 3.07}
{"sequence.code": "MTMLRKIIGWILLLCIIPLFAFTVIASNKEV", "AmyQ secretion efficiency": 5.99}

Specify measured AmyQ secretion efficiency for "MKRFSTAYLLLGILCSAAVFLIGAPSRALNAEV" .
5.97

In one line, give reported AmyQ secretion efficiency of the entry "MTMLRKIIGWILLLCIIPLFAFTVISSGKEV" .
6.13

Dear colleague, please send me the reported AmyQ secretion efficiency for "MPIKKKVMMCLAVTLVFGSMSFPTLTNSGGFSG" when you can.
3.08

Please give measured AmyQ secretion efficiency of the following entry: "MLKKKWMVGLLAGCLAAGGFSYNLFATEN"
5.92

Indicate the recorded AmyQ secretion efficiency value for this sequence: "MKVPKTMLLSTAAGLLLSLTATSVSAKRK"
5.92

----------
- Test system: Bacillus subtilis DB104 (SP-AmyQ fusion secretion)
- assay.method.text: AmyQ secretion efficiency, weighted average sort bin (1 = best secretion, 10 = worst) (bin number (weighted average, 1-10)); higher = lower secretion efficiency
Tick yes if AmyQ secretion efficiency is 6 or greater. Tick no if AmyQ secretion efficiency is less than 6.

Past entries and their recorded results:
{"sequence.code": "MRPVFPLILSAVLFLSCFFGARQTEESASKR", "target.desc": "Bacillus subtilis DB104 (SP-AmyQ fusion secretion)", "discrete.label": "yes"}
{"sequence.code": "MRPVFPLILSAVLFLSCFFGARQTEASESKR", "target.desc": "Bacillus subtilis DB104 (SP-AmyQ fusion secretion)", "discrete.label": "no"}
{"sequence.code": "MKRSISRKITCLLITLLTMGGMIASPASAAGT", "target.desc": "Bacillus subtilis DB104 (SP-AmyQ fusion secretion)", "discrete.label": "no"}
{"sequence.code": "MMKKLFHSTLIVLLFFSFFGVQPIHAATR", "target.desc": "Bacillus subtilis DB104 (SP-AmyQ fusion secretion)", "discrete.label": "no"}
{"sequence.code": "MKLSVKIAGVLTVAAAAMRKKMYATAKGN", "target.desc": "Bacillus subtilis DB104 (SP-AmyQ fusion secretion)", "discrete.label": "yes"}

State whether the measured AmyQ secretion efficiency reaches 6, counting equality as reaching it, for "MTLALRVSALTPSTTLAITAKAKEL"
yes

API: above_or_equal(metric=AmyQ secretion efficiency, cutoff=6) for item "MKLWMRKTQKGLFTIVTFGLVSPPAALMADKP"
no

Please tell me: is the sequence "MKVCQKSIRFLVSLIIGTFVISVPFMANAQSD" at or over 6 in terms of AmyQ secretion efficiency?
no

Given the entry "MKRKKLLSTLLIGIMLLTFAPSAFAKQD" , answer whether its AmyQ secretion efficiency meets or surpasses 6.
no

----------
Catalogue of sequences with associated AmyQ secretion efficiency
- System: Bacillus subtilis DB104 (SP-AmyQ fusion secretion)
- assay.method.text: AmyQ secretion efficiency, weighted average sort bin (1 = best secretion, 10 = worst) (bin number (weighted average, 1-10)); higher = lower secretion efficiency
Give only the figure.

Previously resolved entries follow.
{"sequence.code": "MKRIRIPMTLALGAALTIAPLSFESAEEN", "target.desc": "Bacillus subtilis DB104 (SP-AmyQ fusion secretion)", "AmyQ secretion efficiency": 5.54}
{"sequence.code": "MRKKTKNRLISSVLSTVVISSLLFPGAAGASEE", "target.desc": "Bacillus subtilis DB104 (SP-AmyQ fusion secretion)", "AmyQ secretion efficiency": 2.7}
{"sequence.code": "MRMLWRSLALCGLALTLAPCAQSAEP", "target.desc": "Bacillus subtilis DB104 (SP-AmyQ fusion secretion)", "AmyQ secretion efficiency": 2.34}

Give AmyQ secretion efficiency for the following sequence: "MFKKHTISLLIIFLLASAVLAKPIEAHTD"
1.8

Please indicate AmyQ secretion efficiency recorded for "MKQFAITLSVLCALILLVPTLLVIPFQHNKEAPASV"
8.36

Hello, please tell me recorded AmyQ secretion efficiency for this one: "MHLIRAAGAVCLAVVLIAGCRFNEDQHQAEPENT"
6.25

----------
- System: Bacillus subtilis DB104 (SP-AmyQ fusion secretion)
- assay.method.text: AmyQ secretion efficiency, weighted average sort bin (1 = best secretion, 10 = worst) (bin number (weighted average, 1-10)); higher = lower secretion efficiency
Below, each entry is listed with its recorded AmyQ secretion efficiency.

Field: example entries. Status: answers known.
{"sequence.code": "MFNRLFRVCKKKRKRMAFTLPNSVYAQKP", "target.desc": "Bacillus subtilis DB104 (SP-AmyQ fusion secretion)", "AmyQ secretion efficiency": 7.15}
{"sequence.code": "MRKKRRRVITCVMAASLTLGSLLPAGYATAKED", "target.desc": "Bacillus subtilis DB104 (SP-AmyQ fusion secretion)", "AmyQ secretion efficiency": 3.9}

Now consider a different sequence.
Report AmyQ secretion efficiency, nothing else, for this sequence: "MLLGKILLSSALSLGMLVSAAPVLATSS"
6.9
